Organism: Rattus norvegicus
Experiment: Open TG-GATES - Regimen: Single
Type: toxicity, organism-based, Sprague-Dawley
Set-up: regimen Single, gender Male, age 6 weeks
Conditions: in vivo, po, 100 mg/kg, 3 h, route gavage, dose level High
Reported TERMINAL_BW values are given for each entry in this list.
Please respond with the number in g and leave the unit unwritten.

| chemical_structure | quantity | measurement |
| --- | --- | --- |
| CN(C)CCCN1c2ccccc2CCc2ccc(Cl)cc21 | TERMINAL_BW | 215.5 |

QUERY: Which TERMINAL_BW is listed for CC1=C(/C=C/C(C)=C/C=C/C(C)=C/CO)C(C)(C)CCC1 ?
RESULT: 201.1

QUERY: Entry to check: CN(C)CCN(Cc1cccs1)c1ccccn1
RESULT: 184.9

QUERY: Entry to check: CN(C)CCCN1c2ccccc2CCc2ccccc21
RESULT: 202.6

The measurements presented in this section are drawn from ChEMBL document CHEMBL3885861.
